# ASSAY METHOD TEXT: Microsomal stability in dog liver microsome assessed as half life measured upto 60 mins by LC-MS/MS analysis
# Type: ADME, Canis lupus familiaris
# CONDITION INFO: liver microsomes
REPORTED PROPERTY: half-life (min)

CN1CCOc2cc(-c3ncc4c(ccn4CC4CCNCC4)c3-c3ccc(C#N)c(F)c3)ccc21 = 37
CN1CCOc2cc(-c3ncc4c(ccn4CC4(C)CCNCC4)c3-c3ccc(C#N)c(F)c3)ccc21 = 35

* * *

# TESTED TARGET: UniProt O60341
# ASSAY METHOD TEXT: Inhibition of human recombinant LSD1 expressed in Escherichia coli using H3K4me2 peptide as substrate incubated for 60 mins by AlphaLISA assay
pIC50: −log10 of the molar value.
REPORTED PROPERTY: pIC50

Cn1ncc2cc(-c3ncc4c(ccn4CC4CCNCC4)c3-c3ccc(C#N)c(F)c3)ccc21 = 8.41
Cn1ncc2cc(-c3ncc4c(ccn4C[C@@H]4CCCNC4)c3-c3ccc(C#N)c(F)c3)ccc21 = 8.46
Cn1ncc2cc(-c3ncc4c(ccn4CC4(C)CCNCC4)c3-c3ccc(C#N)cc3)ccc21 = 8.37
CN1CCOc2cc(-c3ncc4c(ccn4CC4CCNCC4)c3-c3ccc(C#N)cc3)ccc21 = 8.34
